Target: T1, MPP5 PDZ (amino acids 238–336) (human, UniProt Q8N3R9 238-336)
T1 sequence (looked up): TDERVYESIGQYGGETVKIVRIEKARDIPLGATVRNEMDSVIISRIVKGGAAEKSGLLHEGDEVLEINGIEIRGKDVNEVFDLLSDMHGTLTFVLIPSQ
Assay: fluorescence polarisation
Settings: both partners purified
No end group written: not given here.
Measurement Label: pKd
In simple prose, pKd is minus the logarithm base ten of a concentration in moles per litre.

The reported pKd of the binder NSSRVPDLLV (also: FITC-labeled, also called peptide from the E protein) [FITC-labeled peptide of the C-terminus of the SARS-CoV-2 E protein (E66-77)] was 3.40
